# Measured On: SARS-CoV-2 spike receptor-binding domain (2019-nCoV RBD-SD1, residues 319–566) (SARS-CoV-2, UniProt P0DTC2)
Measured Quantity: binding result

48 (VHH) VHH: QVQLVESGGGLVQAGGSLRLSCAASGFPVAHWWMEWYRQAPGKEREWVAAIFSEGNWTHYADSVKGRFTISRDNAKNTVYLQMNSLKPEDTAVYYCNVKDTGATQFAYDYWGQGTQVTVS ... binds
60 (VHH) VHH: QVQLVESGGGLVQAGGSLRLSCAASGFPVVAWQMTWYRQAPGKEREWVAAIRSFGVSTHYADSVKGRFTISRDNAKNTVYLQMNSLKPEDTAVYYCNVKDWGYEYEGYDYWGQGTQVTVS ... binds
46 (VHH) VHH: QVQLVESGGGLVQAGGSLRLSCAASGFPVNYTIMFWYRKAPGKEREWVAAIKSHGATTLYADSVKGRFTISRDNAKNTVYLQMNSLKPEDTAVYYCNVKDVGNDQKSYDYWGQGTQVTVS ... binds
